From: PubChem BioAssay AID1986

# assaySummary: inhibitors of HIV fusion peptide binding, primary screen, biochemical, uHTS, fluorescence dequenching (AID 1986)
# studyConditions: cell-free peptide binding, 30 min, at 20 µM
About 890 (0.31%) of roughly 290,000 compounds were called active. No stated cut-off is given here; in the data, active means inhibition mostly above about 52% (no sharp cut-off); inactive means mostly below about 76%. For the sample, actives were picked, then their nearest neighbours and some compounds at random.
Response enum: t (active), f (inactive)

Please review the entries below; each comes with its answer.
INSERT INTO results (compound, classname) VALUES
  ('Cc1ccc(C(=O)C2=C(O)C(=O)N(Cc3ccco3)C2c2cccc(Cl)c2)o1 (stereo unspecified)', 'f'),
  ('Cc1cc[n+](-c2[nH]c(=O)sc2/C=N/N=C(\[O-])c2ccccc2)cc1C', 't'),
  ('Oc1ccc(N=C/C=C/c2cccc(Br)c2)cc1-c1nc2ccccc2s1', 'f'),
  ('CCCN(C(=O)CN1C(=O)NC2(CCCCCC2)C1=O)C1CCS(=O)(=O)C1 (stereo unspecified)', 'f'),
  ('COc1cccc(NC(=O)N(C2CCCCC2)C(C)c2cccs2)c1 (stereo unspecified)', 'f');

## Input Each compound tested received a call. Report the one for COc1ccc(Cl)cc1N1C(=O)CN(Cc2cc(OC)c(OC)c(OC)c2)C1=S .
## Output f

## Input Any idea what this test logged for CC(=O)N(CCC(c1ccco1)C(C)C)Cc1ccc(Cl)cc1 (stereo unspecified) ?
## Output f

## Input Status in this test for Nc1c(-c2cccc(Cl)c2)cnn1-c1ccccc1 ?
## Output f

## Input In this assay, the call recorded for Cc1cc[n+](-c2[nH]c(=O)sc2/C=N/N=C(\[O-])c2ccccc2)cc1 was what?
## Output f

## Input Assay result, entry Brc1ccc(/C=C/C=N/Nc2nc3ccccc3s2)cc1 — outcome?
## Output f

## Input For COC(=O)c1c(C(=O)NCc2ccccc2)ncn1CC(O)COc1ccccc1 (stereo unspecified) , which call appears in the assay record?
## Output f
